targetOfAssay: PI3Kα H1047R (T47D cells) (Homo sapiens, UniProt P42336, H1047R)
Construct: endogenous in cells; host or cells: T47D cells
Sequence (P42336 whole entry H1047R): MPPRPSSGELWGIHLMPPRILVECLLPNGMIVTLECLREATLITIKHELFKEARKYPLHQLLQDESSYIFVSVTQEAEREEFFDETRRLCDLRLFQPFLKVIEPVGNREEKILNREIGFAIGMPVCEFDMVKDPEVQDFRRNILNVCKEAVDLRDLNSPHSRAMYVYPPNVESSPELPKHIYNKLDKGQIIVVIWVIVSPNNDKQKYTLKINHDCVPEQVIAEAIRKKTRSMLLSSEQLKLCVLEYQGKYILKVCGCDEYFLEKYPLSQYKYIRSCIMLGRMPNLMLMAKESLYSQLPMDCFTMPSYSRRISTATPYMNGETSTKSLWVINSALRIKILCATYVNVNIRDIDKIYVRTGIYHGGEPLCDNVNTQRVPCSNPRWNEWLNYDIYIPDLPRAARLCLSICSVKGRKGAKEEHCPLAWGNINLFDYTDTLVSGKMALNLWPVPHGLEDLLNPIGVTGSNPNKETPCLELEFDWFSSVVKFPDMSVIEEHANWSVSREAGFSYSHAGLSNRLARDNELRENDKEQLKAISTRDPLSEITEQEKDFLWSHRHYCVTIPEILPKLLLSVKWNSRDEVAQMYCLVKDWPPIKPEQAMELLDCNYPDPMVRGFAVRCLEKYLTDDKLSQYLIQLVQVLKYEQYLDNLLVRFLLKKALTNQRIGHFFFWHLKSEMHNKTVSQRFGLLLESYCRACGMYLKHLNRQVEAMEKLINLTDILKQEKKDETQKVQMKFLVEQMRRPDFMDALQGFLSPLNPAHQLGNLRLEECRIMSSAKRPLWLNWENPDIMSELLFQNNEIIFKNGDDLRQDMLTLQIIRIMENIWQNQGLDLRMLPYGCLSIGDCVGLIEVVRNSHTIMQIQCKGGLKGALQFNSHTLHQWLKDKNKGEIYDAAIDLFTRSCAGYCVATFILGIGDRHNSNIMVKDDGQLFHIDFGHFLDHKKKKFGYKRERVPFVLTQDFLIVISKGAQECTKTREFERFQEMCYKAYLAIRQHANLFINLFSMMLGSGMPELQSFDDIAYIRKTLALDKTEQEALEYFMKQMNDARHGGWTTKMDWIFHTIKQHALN
Sequence (P27986 whole entry partner): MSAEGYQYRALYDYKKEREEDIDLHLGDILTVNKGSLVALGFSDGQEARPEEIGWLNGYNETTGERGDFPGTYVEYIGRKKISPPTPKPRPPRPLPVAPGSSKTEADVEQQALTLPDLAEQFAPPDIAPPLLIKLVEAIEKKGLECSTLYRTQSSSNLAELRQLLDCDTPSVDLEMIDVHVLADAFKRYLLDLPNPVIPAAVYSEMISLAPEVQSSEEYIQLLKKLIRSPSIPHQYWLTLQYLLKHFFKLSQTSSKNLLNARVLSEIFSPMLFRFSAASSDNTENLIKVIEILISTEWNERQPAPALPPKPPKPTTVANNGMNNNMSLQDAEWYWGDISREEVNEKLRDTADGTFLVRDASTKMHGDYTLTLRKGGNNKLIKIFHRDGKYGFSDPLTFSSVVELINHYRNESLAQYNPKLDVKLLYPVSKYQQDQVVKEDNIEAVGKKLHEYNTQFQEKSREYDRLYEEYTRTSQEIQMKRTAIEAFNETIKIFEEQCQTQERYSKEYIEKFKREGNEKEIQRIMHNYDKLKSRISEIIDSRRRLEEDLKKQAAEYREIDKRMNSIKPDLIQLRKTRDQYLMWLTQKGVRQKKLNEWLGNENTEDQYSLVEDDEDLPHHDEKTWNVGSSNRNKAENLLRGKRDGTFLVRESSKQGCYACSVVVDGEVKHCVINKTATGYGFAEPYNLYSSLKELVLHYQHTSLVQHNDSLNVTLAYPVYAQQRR
protocol: PI3Kα cellular assay: pAKT HTRF in T47D cells after EGF stimulation
Format: cell-based
conditions: selectivity of T47D (H1047R) over SKBR3 (WT) pAKT IC50
experimentalEndpoint: T47D pAKT S473 HTRF IC50 (H1047R): T47D (H1047R) selectivity over SKBR3 (WT)

Recorded T47D pAKT S473 HTRF IC50 (H1047R): T47D (H1047R) selectivity over SKBR3 (WT), per entry:
Asked: Input Cc1cc([C@H](C)Nc2ccccc2C(=O)O)c2nc(-c3ccc4c(c(N)nn4C)c3C)c(C)c(=O)n2c1 [Compound 788] , output reported T47D pAKT S473 HTRF IC50 (H1047R): T47D (H1047R) selectivity over SKBR3 (WT).
Given back: A (A denotes >20-fold)

Asked: Input Cc1cc([C@H](C)Nc2ccccc2C(=O)O)c2nc(N3CC4CC(F)(F)CC4C3)c(C)c(=O)n2c1 (some centres unmarked) [Compound 850] , output reported T47D pAKT S473 HTRF IC50 (H1047R): T47D (H1047R) selectivity over SKBR3 (WT).
Given back: C (C denotes ≤5-fold)

Asked: Input Cc1cc(C(C)Nc2cccc3c2=NCN=3)c2nc(N3CCOCC3)cc(=O)n2c1 (centres unmarked) [Compound 782] , output reported T47D pAKT S473 HTRF IC50 (H1047R): T47D (H1047R) selectivity over SKBR3 (WT).
Given back: C (C denotes ≤5-fold)

Asked: Input Cc1cc([C@@H](C)Nc2ccccc2C(=O)O)c2nc(-c3cnc(C)c(Cl)c3)c(C)c(=O)n2c1 (single isomer, unassigned) [Compound 951] , output reported T47D pAKT S473 HTRF IC50 (H1047R): T47D (H1047R) selectivity over SKBR3 (WT).
Given back: A (A denotes >20-fold)

Asked: Input Cc1cc([C@@H](C)Nc2ccccc2C(=O)O)c2nc(-c3ccc4[nH]nc(C)c4c3)cc(=O)n2c1 [Compound 841] , output reported T47D pAKT S473 HTRF IC50 (H1047R): T47D (H1047R) selectivity over SKBR3 (WT).
Given back: C (C denotes ≤5-fold)

Asked: Input C=CC(=O)Nc1cc(C(C)Nc2ccccc2C(=O)O)c2nc(N3Cc4ccccc4C3)cc(=O)n2c1 (centres unmarked) [Compound 939] , output reported T47D pAKT S473 HTRF IC50 (H1047R): T47D (H1047R) selectivity over SKBR3 (WT).
Given back: C (C denotes ≤5-fold)

Asked: Input Cc1cc([C@@H](C)Nc2ccccc2C(=O)O)c2nc(-c3ccc(Cl)cc3F)c(C)c(=O)n2c1 (single isomer, unassigned) [Compound 965] , output reported T47D pAKT S473 HTRF IC50 (H1047R): T47D (H1047R) selectivity over SKBR3 (WT).
Given back: A (A denotes >20-fold)

Asked: Input C=C(C)N1CCC([C@@H]2C[C@@H]3CN(c4cc(=O)n5cc(C)cc([C@H](C)Nc6ccccc6C(=O)O)c5n4)C[C@@H]3C2)CC1 [Compound 796] , output reported T47D pAKT S473 HTRF IC50 (H1047R): T47D (H1047R) selectivity over SKBR3 (WT).
Given back: C (C denotes ≤5-fold)

For the 2 molecules below, give their T47D pAKT S473 HTRF IC50 (H1047R): T47D (H1047R) selectivity over SKBR3 (WT) values.
1. Cc1cc(C(C)Nc2ccccc2C(=O)O)c2nc(-n3cnc4ccc(O)cc43)cc(=O)n2c1 (centres unmarked) [Compound 801]
2. C=CC(=O)Nc1ccc(C(=O)O)c(NC(C)c2cc(C)cn3c(=O)cc(N4Cc5ccccc5C4)nc23)c1 (centres unmarked) [Compound 840]

Given back:
["C (C denotes ≤5-fold)", "C (C denotes ≤5-fold)"]

For the 4 molecules below, give their T47D pAKT S473 HTRF IC50 (H1047R): T47D (H1047R) selectivity over SKBR3 (WT) values.
1. Cc1cc([C@H](C)Nc2ccccc2C(=O)O)c2nc(-c3ccc4snc(N)c4c3)cc(=O)n2c1 [Compound 810]
2. Cc1cc([C@H](C)Nc2ccccc2C(=O)O)c2nc(-c3ccc4c(c3)c(C3CC3)nn4C)cc(=O)n2c1 [Compound 749]
3. Cc1cc([C@@H](C)Nc2ccccc2C(=O)O)c2nc(N3Cc4ccccc4[C@H]3C)cc(=O)n2c1 [Compound 655]
4. Cc1cc([C@@H](C)Nc2cccc(CO)c2C(=O)O)c2nc(-c3ccc4c(c3)c(C)nn4C)cc(=O)n2c1 [Compound 940]

Given back:
["C (C denotes ≤5-fold)", "C (C denotes ≤5-fold)", "C (C denotes ≤5-fold)", "C (C denotes ≤5-fold)"]
